Where do the numbers come from? From PubChem BioAssay (NCI).

- System: SK-MEL-2 melanoma
- assay procedure: NCI-60 one-dose screen, 48 h (100 = growth as untreated, 0 = no growth, -100 = all killed)
- experimental conditions: 10 µM unless noted
Compounds without any hit were thinned out: in the full panel of roughly 83,000, 20% have a hit.
Examples of compounds with documented growth follow.
Respond with the bare value in %.

Solved entries (count: 2):
[[record]]
structure_string = "COc1ccc(Cn2cc3c(c2-c2cc(OC)c(OC)c(OC)c2)CCCc2cnoc2-3)cc1"
property = "growth"
value_reported = 54.9

[[record]]
structure_string = "Cc1ccc(S(=O)(=O)N/N=C/c2cn(-c3ccc(F)cc3)nc2-c2ccc(S(C)(=O)=O)cc2)cc1"
property = "growth"
value_reported = 102


Continue with the next compound.
// growth value for N#Cc1c(NC(=O)c2ccccc2C(F)(F)F)sc2c1CCC(=O)C2 : 12.2

---

- System: NCI-H226 lung
- assay procedure: NCI-60 one-dose screen, 48 h (100 = growth as untreated, 0 = no growth, -100 = all killed)
- experimental conditions: 10 µM unless noted
The panel holds about 83,000 compounds, 20% with a hit somewhere; the sample as a whole holds those more often.
Examples of molecules with documented growth follow.
Respond with the bare value in %.

Solved entries (count: 3):
[[record]]
molecule = "C=CCn1c(SCC(=O)Nc2cccc(C(=O)/C=C/c3ccccc3Cl)c2)nc2ccccc2c1=O"
target_desc = "NCI-H226 lung"
value_reported = 91.8

[[record]]
molecule = "COc1ccc(N2C(=O)c3cc(OC)c(OC)cc3NC2SCc2ccccc2)cc1 (centres undefined)"
target_desc = "NCI-H226 lung"
value_reported = 102

[[record]]
molecule = "O=C(c1cccc(F)c1)n1ccc2cc(NC(=S)Nc3cccnc3)ccc21"
target_desc = "NCI-H226 lung"
value_reported = 112


Continue with the next molecule.
// growth value for CCOC(=O)c1nn(-c2ccccc2)c(=O)c2c(N)c(C#N)c(-c3cccs3)cc12 : 60

---

- System: KM12 colon
- assay procedure: NCI-60 one-dose screen, 48 h (100 = growth as untreated, 0 = no growth, -100 = all killed)
- experimental conditions: 10 µM unless noted
About 83,000 compounds went through this panel and 20% of them were active in at least one assay; those are over-represented in the sample as a whole.
property: growth (%)
Respond with the bare value in %.

[[record]]
compound = "CCNC(=O)Oc1ccc(/C(=C(/C)c2ccc(Cl)cc2)c2ccc(OCCN(C)C)cc2)cc1"
value_unit = "%"
value_reported = 89.8

[[record]]
compound = "CC(=O)Nc1nc2c(s1)C1=CC[C@H]3[C@@H]4CC[C@H](C(C)=O)[C@@]4(C)CC[C@@H]3[C@@]1(C)CC2"
value_unit = "%"
value_reported = 47.7

[[record]]
compound = "O=C(CSc1nnc(-c2ccc(Cl)cc2)n1-c1ccccc1)Nc1ccc(F)cc1"
value_unit = "%"
value_reported = 82.4


// growth value for CCCC(=O)NC(c1cccnc1)c1ccc2c(C)ccnc2c1O (centres undefined) : 20

// growth value for C/C(=C(/c1ccc(O)cc1)c1ccc(OCCN(C)C)cc1)c1ccc(Cl)cc1 : 44.8

// growth value for CCOC(=O)c1c(NC(=O)c2ccc(F)cc2F)sc2c1CCC(=O)C2 : 90.9

---

- System: PC-3 prostate
- assay procedure: NCI-60 one-dose screen, 48 h
- experimental conditions: 10 µM unless noted
Compounds without any hit were thinned out: in the full panel of roughly 83,000, 20% have a hit. Activity calls are given as the source filed them. How the source made its calls: active means growth percent below 10; inactive means the rest.
Just give me one of these, please: t (active), f (inactive)

Use these answered entries as a reference point.
[[record]]
molecule = "O=C1c2c(c3c4cccnc4[nH]c3c3ccc4ccccc4c23)C(=O)N1CCN1CCOCC1"
category = "f"

[[record]]
molecule = "CC(=O)NC(C)(C)C(=O)N1CCC[C@H]1C(=O)NC(C)(C)C(=O)N[C@@H](C)C(=O)NC(C)(C)C(=O)N[C@@H](C)C(=O)N[C@@H](CCC(N)=O)C(=O)NC(C)(C)C(=O)N[C@H](C(=O)NC(C)(C)C(=O)NCC(=O)N[C@@H](CC(C)C)C(=O)NC(C)(C)C(=O)N1CCC[C@H]1C(=O)N[C@H](C(=O)NC(C)(C)C(=O)NC(C)(C)C(=O)N[C@@H](CCC(N)=O)C(=O)N[C@@H](CCC(N)=O)C(=O)N[C@H](CO)Cc1ccccc1)C(C)C)C(C)C"
category = "f"

[[record]]
molecule = "C/C(=C(/c1ccc(O)cc1)c1ccc(OCCN(C)C)cc1)c1ccc(Cl)cc1"
category = "f"

[[record]]
molecule = "Oc1ccccc1-c1nnc(SCc2ccc(O)c3ncccc23)n1-c1ccccc1"
category = "f"

[[record]]
molecule = "Oc1ccc(CSc2nnc(-c3cnccn3)n2-c2ccccc2)c2cccnc12"
category = "f"

[[record]]
molecule = "O=S(=O)(NC1CC2CCC1C2)c1ccc2c(c1)C(=NO)c1cc(S(=O)(=O)NC3CC4CCC3C4)ccc1-2 (stereo unspecified)"
category = "f"

[[record]]
molecule = "CN(C)C(=O)C1=NC(CO)C(=O)N(c2ccc(Cl)cc2)N1 (stereo unspecified)"
category = "f"

[[record]]
molecule = "CN(c1ccc(Br)cc1)S(=O)(=O)c1ccc(-c2cnc(C3CC3)o2)cc1"
category = "f"


Which outcome was entered for the molecule CCNCc1c(-c2cccc(OC(F)(F)F)c2)[nH]c2ccc(N3CCCC3)cc2c1=O in this test?
f

Which outcome was entered for the molecule O=S(=O)(Nc1ccc(C2CC2)cc1)c1ccc(-c2cnc(C3CC3)o2)cc1 in this test?
f
